Target: UniProt P18089
Sequence (P18089 1-450): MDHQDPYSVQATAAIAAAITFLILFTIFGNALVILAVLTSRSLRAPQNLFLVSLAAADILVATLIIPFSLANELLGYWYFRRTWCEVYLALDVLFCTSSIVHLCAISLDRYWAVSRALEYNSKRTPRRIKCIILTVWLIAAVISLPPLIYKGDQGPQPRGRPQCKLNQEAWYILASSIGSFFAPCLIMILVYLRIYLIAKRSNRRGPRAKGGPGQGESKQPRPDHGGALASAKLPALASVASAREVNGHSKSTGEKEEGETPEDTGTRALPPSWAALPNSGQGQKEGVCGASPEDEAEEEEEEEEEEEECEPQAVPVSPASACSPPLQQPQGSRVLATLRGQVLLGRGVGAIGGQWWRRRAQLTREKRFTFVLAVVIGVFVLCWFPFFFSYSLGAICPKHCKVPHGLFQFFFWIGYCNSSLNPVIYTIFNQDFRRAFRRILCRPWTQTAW
Test: Radioligand binding, adrenergic α2B (Protocol Group B)
Set-up: purchased Milipore (Millipore)
Details: 0.1 μM compound; Protocol Group B; 0.1 µM
quantity: Percentage inhibition of ligand binding, Adrenergic α2B (0.1 μM) (%)

Ask: So what does the record say about Percentage inhibition of ligand binding, Adrenergic α2B (0.1 μM) for Cc1cc(F)c2c(c1)c1c(n2CC(C)(O)c2ccncc2)CC2CCCN2C1 (single isomer, unassigned) [62d] ?
Result: 82

(1) OC(Cn1c2c(c3cc(F)ccc31)C1CCCN1CC2)c1ccncc1 (single isomer, unassigned) [18c]
(2) Cc1ccc2c(c1)c1c(n2CC(C)(O)c2cccnc2)CC2CCCN2C1 (stereo not shown) [41c]
Ask: Higher Percentage inhibition of ligand binding, Adrenergic α2B (0.1 μM): 1 or 2 ? Answer by stating the label of the chosen item.
Result: 1
(1: 22%, 2: 0%)

(a) Cc1ccc2c(c1)c1c(n2CC(O)c2ccccn2)CC2CCCN2C1 (single isomer, unassigned) [45a]
(b) CC(O)(Cn1c2c(c3cc(Cl)cc(F)c31)CN1CCCC1C2)c1cccnc1 (single isomer, unassigned) [63a]
Ask: Returns: the argument ( a or b ) having the larger Percentage inhibition of ligand binding, Adrenergic α2B (0.1 μM). Selection: enter the item's label.
Result: b
(b: 84%, a: 43%)
